Just for reference, patent US8741806B2 is where these values come from.

Tested on: Lolium perenne (LOLPE)
Assay: Example B post-emergence herbicidal activity, glasshouse pot test
Format: in vivo
Settings: 312 h, rate 250 g/ha, evaluated after 13 days, scale 0-100, read-out: Post-emergence activity LOLPE (100=total damage to plant; 0=no damage to plant)
REPORTED PROPERTY: pest or weed control at 250 g/ha (%)
Numbers only, in %.

Reference set (3 entries):
In [3]: df
Out[3]:
                           smiles_structure             measured_on  quantitative_result
0  CCc1ccc(-c2ccc(Cl)c(F)c2)cc1C1=C(O)C(C)(C)CCC1=O  Lolium perenne (LOLPE)                   90
1  CCc1ccc(-c2ccc(Cl)c(F)c2F)cc1C1=C(O)CCCC1=O  Lolium perenne (LOLPE)                  100
2  CCc1ccc(-c2ccc(Cl)cc2C)cc1C1=C(O)CCCC1=O  Lolium perenne (LOLPE)                   50

As a next step, examine the compound that follows.
q: Tell me the measured pest or weed control at 250 g/ha of CCc1ccc(-c2ccc(Cl)cc2Cl)cc1C1=C(O)C(C)(C)CC(C)(C)C1=O , please.
a: 40
